Test: gradient 5% acetonitrile 3 min, to 50% in 2 min, to 85% in 15 min, held 3 min, 100 µL/min
Details: column: Zorbax Extend-C18 2.1 x 50 mm; eluents: water / acetonitrile, 0.1% formic acid

- chemicalString: "Cc1cc(N2CCN(C)CC2)nc2ccc(NC(=S)N3CCCCCC3)cc12"
  RP-LC retention time / s: 556
- chemicalString: "CCN(CC)CCOc1ccc(/C(=C(\\Cl)c2ccccc2)c2ccccc2)cc1"
  RP-LC retention time / s: 996
- chemicalString: "Cn1c(=O)n(C)c2cc(Nc3cc(N4CCOCC4)ncn3)ccc21"
  RP-LC retention time / s: 566

* * *

Test: gradient 5% acetonitrile 3 min, to 50% in 2 min, to 85% in 15 min, held 3 min, 100 µL/min
Details: column: Zorbax Extend-C18 2.1 x 50 mm; eluents: water / acetonitrile, 0.1% formic acid
Property: RP-LC retention time; scope: individual compounds
valueKind: RP-LC retention time

- compound: "O=C(CCc1ccccc1)Nc1ccc2[nH]c(=O)oc2c1"
  measuredValue: "713 s"
- compound: "Cc1nc(-c2noc(-c3cccnc3)n2)cn1CC(=O)Nc1ccc(F)cc1"
  measuredValue: "687 s"
- compound: "CCOc1cccc(-c2noc(Cn3cnc4c(oc5ccccc54)c3=O)n2)c1"
  measuredValue: "1010 s"
- compound: "CCOC(=O)c1nc2ccccc2nc1N1CCN(c2ccccn2)CC1"
  measuredValue: "666 s"
- compound: "COc1cc(OC)c(NC(=O)C2CCN(S(=O)(=O)c3cn(C(C)C)cn3)CC2)cc1Cl"
  measuredValue: "814 s"
- compound: "CN(CCc1noc(-c2ccc(C(=O)N3CCCC3)cc2)n1)C(=O)Cc1ccc(Cl)cc1"
  measuredValue: "816 s"
- compound: "Cc1cc2nn(CC(=O)Nc3ccc(F)cc3F)c(=O)n2c(Nc2ccc(C)c(F)c2)n1"
  measuredValue: "1080 s"
- compound: "Fc1ccc(-c2nc(CC3CCNC3)no2)cc1 (configuration not stated)"
  measuredValue: "621 s"
- compound: "CC(C)OCCCN(CC(=O)N1CCNCC1)C(=O)c1ccc(C(F)(F)F)cc1"
  measuredValue: "653 s"
- compound: "Cc1cc(N2CCCCC2)nc(N2CCN(C(=O)CC3CCCC3)CC2)n1"
  measuredValue: "738 s"
- compound: "CCn1ccc2sc(C)c(C(=O)NCc3ccc(C)cc3)c2c1=O"
  measuredValue: "850 s"
- compound: "CC(Oc1ccc(C(C)(C)C)cc1)C(=O)N(Cc1ccco1)C1CCS(=O)(=O)C1 (configuration not stated)"
  measuredValue: "1050 s"
- compound: "Cc1cccc(-n2ncc3c(NCCCN4CCCC4=O)ncnc32)c1"
  measuredValue: "682 s"
- compound: "N#Cc1ccc(C(=O)Nc2cnc(N3CCCCCC3)nc2)cc1"
  measuredValue: "891 s"
- compound: "CCc1noc(NC(C)=O)c1-c1ccc(OC)c(S(=O)(=O)NCc2ccc(C)cc2)c1"
  measuredValue: "802 s"
- compound: "COCCN1CCC2(CC1)CN(Cc1ccc(Cl)c(F)c1)Cc1ccccc1O2"
  measuredValue: "751 s"
- compound: "CCCNC(=O)N1CCC(N2CCN(Cc3cccc(F)c3)C(=O)C2=O)CC1"
  measuredValue: "651 s"
- compound: "O=C(c1ccsc1)N1CCN(c2cc(-c3ccc(Cl)cc3)[nH]n2)CC1"
  measuredValue: "809 s"
- compound: "CCC1Oc2ccc(S(=O)(=O)N3CCC(C(=O)N4CCc5ccccc54)CC3)cc2NC1=O (configuration not stated)"
  measuredValue: "917 s"
- compound: "Cc1nn(-c2ccccc2)c(C)c1S(=O)(=O)N1CCC(C(=O)NCCc2ccccc2)CC1"
  measuredValue: "812 s"
- compound: "CCc1ccc(-c2cc(C(F)(F)F)on2)cc1S(=O)(=O)N1CCCCC1CC (configuration not stated)"
  measuredValue: "749 s"
- compound: "O=C(NCCCN1CCCC1)c1ccc(-c2ccc(NCc3ccccc3)nn2)cc1"
  measuredValue: "586 s"
- compound: "N#CCCc1ccc2c(c1)-c1[nH]c3ccc([N+](=O)[O-])cc3c1CC(=O)N2"
  measuredValue: "778 s"
- compound: "CCOc1ccccc1NC(=O)N1CCC2(CC1)NC(=O)c1ccc(Cl)cc1N2CC"
  measuredValue: "955 s"
- compound: "CCOC(=O)c1c(C)[nH]c(C)c1S(=O)(=O)N1CCC(C(=O)Nc2ccc(C)cn2)CC1"
  measuredValue: "646 s"
- compound: "Cc1ccc(-c2nc3nc4c(c(N5CCCC5)n3n2)CCC4)cc1"
  measuredValue: "909 s"
- compound: "CN1c2cc(F)ccc2C(=O)NC12CCN(C(=O)NCCc1ccccc1)CC2"
  measuredValue: "761 s"

* * *

Property: RP-LC retention time; scope: individual compounds
Assay: gradient 5% acetonitrile 3 min, to 50% in 2 min, to 85% in 15 min, held 3 min, 100 µL/min
Conditions: column: Zorbax Extend-C18 2.1 x 50 mm; eluents: water / acetonitrile, 0.1% formic acid

- chemicalString: "O=C(c1ccc(CN2C(=O)CSc3ncccc32)cc1)N1CCN(c2ccccn2)CC1"
  RP-LC retention time: "710 s"
- chemicalString: "CC(C)(CO)NC(=O)Cc1ccc(NS(=O)(=O)c2ccccc2Br)cc1"
  RP-LC retention time: "664 s"
- chemicalString: "Nc1cc(C2CCN(C(=O)/C=C/c3ccccc3)CC2)no1"
  RP-LC retention time: "724 s"
- chemicalString: "Cc1sc2ccn(C)c(=O)c2c1C(=O)NCc1cccc(Br)c1"
  RP-LC retention time: "834 s"
- chemicalString: "COc1ccc(Cn2nnc(C(=O)NCc3ccco3)c2-n2cccc2)cc1"
  RP-LC retention time: "925 s"
- chemicalString: "CC1CCN(c2cc(-n3cnc(C(=O)Nc4ccc5c(c4)OCCO5)c3)ncn2)CC1"
  RP-LC retention time: "1030 s"
- chemicalString: "Cc1ccc(Cn2c(=O)c(N3CCN(C(=O)Nc4ccc5c(c4)OCO5)CC3)nc3cccnc32)cc1"
  RP-LC retention time: "1070 s"
- chemicalString: "COc1ccc(-c2csc(NC(=O)CSc3nc(C)cc(C)n3)n2)cc1"
  RP-LC retention time: "979 s"
- chemicalString: "CC(C)c1ccc(CNC(=O)Cc2nnc(-c3ccc4ncccc4c3)o2)cc1"
  RP-LC retention time: "811 s"
- chemicalString: "CN(C)C(=O)c1cn(C2CN(C(=O)c3cccc4[nH]ccc34)C2)nn1"
  RP-LC retention time: "608 s"

* * *

Assay: gradient 5% acetonitrile 3 min, to 50% in 2 min, to 85% in 15 min, held 3 min, 100 µL/min
Details: column: Zorbax Extend-C18 2.1 x 50 mm; eluents: water / acetonitrile, 0.1% formic acid
Property: RP-LC retention time; scope: individual compounds

- compound: "Cc1ccc(CC(=O)N2CCC3(CC2)N=C(c2ccc(C)cc2)NO3)cc1"
  RP-LC retention time [s]: 874
- compound: "Cn1nccc1-c1cccc(-c2noc(-c3cccc(Cl)c3)n2)c1"
  RP-LC retention time [s]: 1260
- compound: "CCOc1ccc(C2c3[nH]c4ccccc4c3CCN2C(=O)Cc2cccs2)cc1 (configuration not stated)"
  RP-LC retention time [s]: 1190
- compound: "COc1ccccc1C(O)Cn1ccn2nc(-c3ccc(C)c(C)c3)cc2c1=O (configuration not stated)"
  RP-LC retention time [s]: 982
- compound: "CC(C)N1C(=O)C2(CCCC2)C1C(=O)N1CCc2ccccc21 (configuration not stated)"
  RP-LC retention time [s]: 780
- compound: "CSc1cccc(NC(=O)C2CCN(S(=O)(=O)c3cn(C(C)C)cn3)CC2)c1"
  RP-LC retention time [s]: 812
- compound: "COc1ccccc1/C=C(\\C#N)C(=O)O"
  RP-LC retention time [s]: 801
- compound: "COc1cccc(N2CCN(CC(O)c3ccc(C)cc3)CC2)c1 (configuration not stated)"
  RP-LC retention time [s]: 677
- compound: "O=C(NC1CC1)[C@@H]1C[C@H](Oc2ccccc2)CN1C(=O)CC1CCCC1"
  RP-LC retention time [s]: 818
- compound: "Cc1ccc(-c2cc3c(=O)n(Cc4noc(CN5CCCC5)n4)ccn3n2)cc1"
  RP-LC retention time [s]: 654
- compound: "Cc1nc2c(sc3nc(-c4ccccc4)ccc32)c(=O)n1CC(=O)NCc1ccccc1"
  RP-LC retention time [s]: 972
- compound: "Cc1cc(C)c(S(=O)(=O)N2CC(c3nc(Cc4ccccc4)no3)C2)c(C)c1"
  RP-LC retention time [s]: 1190
- compound: "NC(=O)C1CCN(CC(=O)Nc2nc(-c3ccccc3)cs2)CC1"
  RP-LC retention time [s]: 588
- compound: "CCCN1CCN(C(=O)c2ccc(S(=O)(=O)c3ccccc3)s2)CC1"
  RP-LC retention time [s]: 630
- compound: "CCOc1ccc(OCC)c(NC(=O)C2CCN(c3nccnc3Sc3ccc(C)cc3)CC2)c1"
  RP-LC retention time [s]: 1380
- compound: "CN1C(=O)CCc2cc(NS(=O)(=O)c3ccccc3C(F)(F)F)ccc21"
  RP-LC retention time [s]: 779
- compound: "O=C(NC1CCCCCC1)c1nc(N2CCCC2)c2ccccc2n1"
  RP-LC retention time [s]: 759
- compound: "COCc1nn(CC2CC2)c2c1CN(C(=O)c1ccc(C)s1)CC2"
  RP-LC retention time [s]: 775
- compound: "CCOC(=O)c1c(C)[nH]c(C(=O)N2CCC(CC(=O)NCc3cccnc3)CC2)c1C"
  RP-LC retention time [s]: 608
- compound: "COc1ccc(OC)c(NC(=O)C2Oc3ccccc3NC2=O)c1 (configuration not stated)"
  RP-LC retention time [s]: 773
- compound: "CCOC(=O)c1cc(C2CC2)nc2c1c(=O)n(Cc1ccc(F)cc1Cl)c(=O)n2C"
  RP-LC retention time [s]: 855
- compound: "COc1ccc(N2C=C(C#N)S(=O)(=O)c3ccc(F)cc32)cc1Cl"
  RP-LC retention time [s]: 948
- compound: "Cc1oc(-c2[nH]ncc2C(=O)N2CCOCC2)cc1S(=O)(=O)N1CCN(C)CC1"
  RP-LC retention time [s]: 553
- compound: "COc1cccc(C(=O)N2CCc3c(c(-c4nnc(-c5ccccc5Cl)o4)nn3C)C2)c1OC"
  RP-LC retention time [s]: 822
- compound: "Cc1ccc(NC(=O)Cn2c(=O)c3cc(C4CC4)nn3c3ncccc32)c(C)c1"
  RP-LC retention time [s]: 808
- compound: "CCc1ccc(S(=O)(=O)N2CCC3(CC2)C(=O)N(CC)c2ccccc23)cc1"
  RP-LC retention time [s]: 1140
- compound: "COCc1nc2cccnc2n1C1CCN(C(=O)Nc2ccc(Cl)cc2)CC1"
  RP-LC retention time [s]: 744
- compound: "CCOC(=O)c1cc(-c2ccc(S(=O)(=O)N3CCN(c4ccccn4)CC3)s2)on1"
  RP-LC retention time [s]: 809
- compound: "CNC(=O)c1cc2cc(Cl)ccc2[nH]1"
  RP-LC retention time [s]: 741
- compound: "O=C(Cn1nc2c3ccc(Cl)cc3ncn2c1=O)Nc1ccc(F)cc1"
  RP-LC retention time [s]: 744
- compound: "CCOc1ccccc1NS(=O)(=O)c1cn(CC(C)C)c2ncccc12"
  RP-LC retention time [s]: 1030
- compound: "O=C(CC1CCN(C(=O)c2ccc3oc(-c4ccccc4)nc3c2)CC1)NCCN1CCOCC1"
  RP-LC retention time [s]: 630
- compound: "O=C(Cn1c(=O)c2cc(C3CC3)nn2c2ncccc21)NCc1ccc(F)cc1"
  RP-LC retention time [s]: 748
- compound: "CN1CCN(c2ncc3c(=O)n(CC4CCCO4)ccc3n2)CC1 (configuration not stated)"
  RP-LC retention time [s]: 567
- compound: "CC(C)c1cccc(Nc2nc3ccncc3n(Cc3ccccc3)c2=O)c1"
  RP-LC retention time [s]: 911
- compound: "CCSc1ccccc1C(=O)NCC1CCN(C(=O)Oc2ccccc2)CC1"
  RP-LC retention time [s]: 863
- compound: "CC(CCc1ccccc1)NC(=O)C1CCN(Cc2cn(C)c3ccc(Cl)cc23)CC1 (configuration not stated)"
  RP-LC retention time [s]: 790

Each recorded value in this set is attributed to the METLIN SMRT retention time set (Domingo-Almenara et al. 2019).
